tested on: MOLT-4 leukemia; test: NCI tumour cell line growth inhibition, 48 h; in the data active = GI50 below about 0.43 µM; inactive = the rest
Classes to choose from: active, inactive

Exercise: Tell me the assay call for O=C(NC(=S)NNC(=S)NNc1ccccc1)c1ccccc1 please.
Key: inactive

Exercise: What outcome does the record of this test show for CC1(C)N=C(N)N=C(N)N1c1cccc(CCCCc2ccccc2)c1 ?
Key: active

Exercise: Given COc1ccc(-c2cc(-c3cn[nH]c3-c3ccccn3)ccn2)cc1 , state the outcome it received in this test.
Key: inactive

Exercise: Identify the outcome logged in this assay for the compound shown: COc1cc(Cn2ccc3c2-c2oncc2CC3)cc(OC)c1
Key: inactive

Exercise: Hi, sorry to bother you, what did the test record for CC1(C)CC(OCCCC[P+](c2ccccc2)(c2ccccc2)c2ccccc2)CC(C)(C)N1O ?
Key: active

Exercise: What did this assay record as the result for COc1cc2nc(N3CCCC3)nc(Nc3ccccc3)c2cc1OC ?
Key: inactive

----------
system: CCRF-CEM leukemia; test: NCI tumour cell line growth inhibition, 48 h
Record satisfied whenever TGI is at 30 µM or higher; record not satisfied when lower.

Exercise: Please indicate if the recorded TGI for CCC[CH2][Ge]([CH2]CCC)([CH2]CCC)[O]C(=O)C(O)c1ccccc1 (stereo not given) meets or exceeds 30 µM.
Key: not satisfied

Exercise: Could you tell me if the measured TGI of COc1c(NC(=O)CC(C)=O)[c]([Hg][O]C(C)=O)c(OC)c(Cl)[c]1[Hg][O]C(C)=O reaches 30 µM or more?
Key: not satisfied

Exercise: Exam item: decide whether the reported TGI for NC1CC(=O)c2csc(Cl)c21 (stereo not given) is at least 30 µM.
Key: not satisfied

Exercise: Please tell me: is the compound C/C(=N\NC(=O)c1ccccc1O)c1cccc(/C(C)=N/NC(=O)c2ccccc2O)n1 at or over 30 µM in terms of TGI?
Key: satisfied

Exercise: State whether the measured TGI reaches 30 µM, counting equality as reaching it, for c1ccc(-c2nnc(Nc3ccc4c(c3)OCCO4)o2)c(NCc2ccncc2)c1
Key: satisfied

Exercise: Entry COc1ccc(OC)c(C#Cc2ccc(OC)c(C(=O)NCCc3ccc(F)cc3)c2)c1 : is its TGI no less than 30 µM?
Key: satisfied

Exercise: Does TGI meet or surpass 30 µM for CCN(CC)CCCOc1cc(O)c2c(=O)cc(-c3ccccc3)oc2c1 ?
Key: not satisfied

Exercise: Assess whether reported TGI for CCO/C=N/C1=C(C#N)C(c2ccc(Cl)cc2)c2c(-c3ccccc3)nn(-c3ccccc3)c2O1 (stereo not given) sits at 30 µM or higher.
Key: satisfied

Exercise: Hi, just wondering whether Fc1ccc(-c2nnc3sc(COc4ccccc4Cl)nn23)cc1Cl shows TGI of 30 µM or higher.
Key: satisfied

Exercise: Check the entry O=C(NNc1ccccc1)OCc1ccccc1 : does TGI equal or exceed 30 µM?
Key: satisfied

----------
test system: SK-MEL-28 melanoma; test: NCI tumour cell line growth inhibition, 48 h
Where a SMILES comes first, the peptide text is derived from it.
Property measured: TGI

Looking up COc1cc2c(cc1Oc1ccc(OC)c3c1CC1c4c(cc(OC)c(OC)c4-3)CCN1C)CC1c3c(cc(OC)c(OC)c3-2)CCN1C (centres undefined) , I found its TGI recorded as 3.44 µM

# TGI (compound: Cc1ccc(S(=O)(=O)SCc2ccccc2CSS(=O)(=O)c2ccc(C)cc2)cc1 ) is 36.6 µM

Nc1ccn(C2CC(O)C(CO)O2)c(=O)n1 (centres undefined) yielded TGI of > 5000 µM

Input O=C(O)CCCCCO . Output TGI: > 100 µM

The compound listed as O=C(O)C1=NNC(C(=O)O)=NN1 has a reported TGI of > 100 µM

compound CCOC(=O)N1N=NC2C3OC(C[C@@]3(C#N)OC(C)=O)[C@H]21 (some centres undefined) , TGI observed: > 100 µM

Per the records, this compound ( CC1(O)CC23CC1CCC2(C)C12CCCC(C)(C(=O)O1)C2CC3O (centres undefined) ) has TGI equal to > 100 µM

TGI measured on C[C@H]1CCCCC[C@@H]2CC(=O)CC2C(=O)CCC(=O)O1 (some centres undefined) = > 100 µM

Per the records, this compound ( CC(=O)c1nc2ccccc2n1CC(=O)c1ccc(Cl)cc1 ) has TGI equal to > 100 µM

Lab note: NC(CSc1nc2ccccn2c1[N+](=O)[O-])C(=O)O (centres undefined) gave TGI of > 100 µM

The compound listed as O=C1c2cscc2C(=O)C1(O)O shows TGI equal to > 100 µM

Per the records, this compound ( CC1(C)CC(OCCCC[P+](c2ccccc2)(c2ccccc2)c2ccccc2)CC(C)(C)N1O ) has TGI equal to 2.02 µM

In plain terms, O=C1OC(C2=CC(=O)c3ccccc3C2=O)C(Cl)=C1Cl (centres undefined) has a documented TGI of 96.2 µM

Data point: CCOC(=O)Cn1c(C)c(/C=N/NC(=O)c2cc3c(ccc4ccccc43)o2)c2ccccc21 ; TGI = 30.5 µM

Sure, the documented TGI for CNNC(=N\S(=O)(=O)c1cc(C(=O)Nc2ccc(Cl)cc2)c(Cl)cc1SCc1ccccc1)/N=C/c1ccc([N+](=O)[O-])s1 is > 100 µM

Documented TGI of COC(=O)c1ccc2c(c1)C(=O)c1c-2n(CCCN)c(=O)c2cc([N+](=O)[O-])ccc12 : 0.81 µM

Sample CC1(c2nc3ccccc3[nH]2)CCC(C(N)=O)C(C)(C)O1 (centres undefined) ; TGI observed: > 100 µM

Entry under test: CSCCCNC(=O)c1csc(-c2csc(CCN)n2)n1 . Its TGI was > 100 µM

Reported TGI for O=C(Nc1nnc(-c2c(Cl)c(Cl)c(Cl)c(Cl)c2-c2nc3cc(C(=O)c4ccccc4)ccc3[nH]2)o1)c1ccccc1 was 45.4 µM

Just so you know, measured TGI for CC(=O)NC(CS)C(=O)NC(CO)C(=O)NC(CO)C(=O)NC(Cc1c[nH]c2ccccc12)C(=O)N1CCCC1C(=O)NC(CO)C(=O)NC(Cc1c[nH]c2ccccc12)C(=O)NC(Cc1c[nH]cn1)C(=O)NC(CO)C(=O)NC(Cc1c[nH]c2ccccc12)C(=O)NCC(=O)NCC(=O)NC(CC(=O)O)C(=O)NC(CCC(N)=O)C(=O)NC(CCCCN)C(=O)NC(Cc1ccccc1)C(=O)NC(CCCNC(=N)N)C(=O)NC(CCCCN)C(N)=O (centres undefined) (Ac-CSSWPSWHSWGGDQKFRK-NH2; configuration not given here) came out at > 25 µM

The recorded TGI for COc1cc(/C=C/c2ccc(OC(C)=O)cc2)cc(OC)c1OC is > 100 µM

Reported TGI ( CC1(O)CC2(O)C=CC3=C(C(=O)c4cccc(O)c4C3=O)C2(O)C(=O)C1O (centres undefined) ) = 3.2 µM

For record COc1ccc(-c2cc(-c3cn[nH]c3-c3ccccn3)ccn2)cc1 the listed TGI is > 25 µM

// recorded TGI for Cc1cc(=O)oc2c1cc(OCC(=O)OCCN1CCCCC1)c1occ(C)c12 : > 100 µM

// recorded TGI for Nc1ccc(Nc2c3ccccc3nc3ccccc23)cc1 : > 10 µM

# TGI of CC1OC(OC2CCCc3c(O)c4c(c(O)c32)C(=O)c2ccccc2C4=O)CC(N)C1O (centres undefined) = 3.32 µM

Note to self: TGI recorded for COc1cc(C(=O)C/C(CCC(=O)Nc2ccc(Cl)cc2Cl)=N/NC(=O)C(N)=O)ccc1O was > 100 µM

The recorded TGI for entry O=C(Nc1ccccc1)NS(=O)(=O)c1ccc(N2N=C3c4ccccc4CC3C2c2ccccn2)cc1 (centres undefined) equals > 100 µM

The compound listed as Cc1ccsc1C(=O)C(CC(=O)c1cccs1)c1ccsc1 (centres undefined) has a reported TGI of > 100 µM

TGI measured on O=C(Nc1nc2ccccc2n1Cc1ccc(Cl)cc1)NC12CC3CC(CC(C3)C1)C2 = 68.3 µM

// recorded TGI for Cc1cc(N(CCCCl)CCCCl)ccc1C=Nc1cccc(Cl)c1 : 41.5 µM

According to the records, this compound C=CC(=O)N1CCC([C@@H]2CCNc3c(C(N)=O)c(-c4ccc(Oc5ccccc5)cc4)nn32)CC1 displays TGI of 30.6 µM

Memo: CC(=O)C1C(=O)C(=O)N(c2ccccc2N2C(=O)C(=O)C(C(C)=O)C2=O)C1=O (centres undefined) , reported TGI: > 100 µM

Input Cc1cc(C)n(-c2nc3ccccc3c(=O)n2-c2ccccc2)n1 . Output TGI: > 100 µM

// field: TGI; key: OCc1ccc2c(c1)CC1(C2)Cc2cc3c(cc2C1)CCC3 ; value = > 100 µM

Note to self: TGI recorded for N#CSCc1c(Cl)cccc1Cl was > 100 µM

Please fill in: TGI reported for COc1cc(Cn2ccc3c2-c2oncc2CC3)cc(OC)c1 = > 100 µM

Note to self: TGI recorded for O=C1c2ccccc2-c2n[nH]c3cccc1c23 was > 100 µM

Form: compound = O=C(NC(=S)NNC(=S)NNc1ccccc1)c1ccccc1 ; TGI = > 100 µM
